FYI, the data here is from PubChem BioAssay (NCI).

TGI overview
System: CCRF-CEM leukemia
assay-details: NCI tumour cell line growth inhibition, 48 h

Some compounds with recorded TGI:
| compound | study-target | result |
| --- | --- | --- |
| COc1cc(C(C)(C)C)c(OC(=O)/C=C/C(=O)O/C=C/[N+](=O)[O-])c(C(C)(C)C)c1 | CCRF-CEM leukemia | 37.3 µM |
| COc1cc(OC)c(Oc2cccc(OC)c2OC)c(OC)c1 | CCRF-CEM leukemia | > 100 µM |
| O=c1c2ccccc2oc2nccnc12 | CCRF-CEM leukemia | > 100 µM |
| C=CCn1c(-c2ccc(N=NNc3ccc(-c4n[nH]c(=S)n4CC=C)cc3)cc2)n[nH]c1=S | CCRF-CEM leukemia | > 100 µM |
| NNC(=S)N/N=C(\c1nc2ccc(Cl)cc2[nH]c1=O)C(O)c1ccc(Cl)cc1Cl (centres undefined) | CCRF-CEM leukemia | > 100 µM |

State, for CCRF-CEM leukemia, measured TGI of the compound listed here: "c1ccc2c(c1)N=c1ccccc1=P21c2ccccc2Nc2ccccc21" 0.737 µM
